Tested on: SkBr-3 (Her2+)
Assay: In vitro cell viability (CellTiter-Glo) of camptothecin derivatives in SkBr-3
Type: cell-based, human
Conditions: Homo sapiens, SK-BR-3, 120 h, Table 4A; 120-hour assay; derivatives as TFA salt, exatecan mesylate
experimental.endpoint: log10(EC50) (log10 of the value in nM)

{"columns": ["molecule", "log10(EC50)"],
 "data": [
  ["CC[C@@]1(O)C(=O)OCc2c1cc1n(c2=O)Cc2c-1nc1cc(F)c(C)c3c1c2[C@@H](NC(=O)CO)CC3 [Dxd, reference compound]", 0.34],
  ["CC[C@]1(O)C(=O)OCc2c1cc1n(c2=O)Cc2c-1nc1cc(F)c(C)c3c1c2[C@H](NC(=O)[C@H]1CNCCO1)CC3", 0.74],
  ["CC[C@]1(O)C(=O)OCc2c1cc1n(c2=O)Cc2c-1nc1cc(F)c(C)c3c1c2[C@H](NC(=O)[C@H]1CCCN1)CC3", 0.51],
  ["CC[C@]1(O)C(=O)OCc2c1cc1n(c2=O)Cc2c-1nc1cc(F)c(C)c3c1c2[C@H](NC(=O)[C@@H]1COCCN1)CC3", 0.75],
  ["CC[C@@]1(O)C(=O)OCc2c1cc1n(c2=O)Cc2c-1nc1cc(F)c(C)c3c1c2[C@@H](N)CC3 [Exatecan, exatecan, reference compound]", -0.16],
  ["CC[C@]1(O)C(=O)OCc2c1cc1n(c2=O)Cc2c-1nc1cc(F)c(C)c3c1c2[C@H](NC(=O)[C@H]1COCCN1)CC3", 0.36],
  ["CC[C@]1(O)C(=O)OCc2c1cc1n(c2=O)Cc2c-1nc1cc(F)c(C)c3c1c2[C@H](NC(=O)[C@@H]1CCN1)CC3", 0.26],
  ["CC[C@]1(O)C(=O)OCc2c1cc1n(c2=O)Cc2c-1nc1cc(F)c(C)c3c1c2[C@H](NC(=O)[C@@H]1CNCCO1)CC3", 1.04],
  ["CC[C@]1(O)C(=O)OCc2c1cc1n(c2=O)Cc2c-1nc1cc(F)c(C)c3c1c2[C@H](NC(=O)[C@H]1CCN1)CC3", 0.36],
  ["CC[C@]1(O)C(=O)OCc2c1cc1n(c2=O)Cc2c-1nc1cc(F)c(C)c3c1c2[C@H](NC(=O)[C@@H]1C[C@@H](F)CN1)CC3", 0.45],
  ["CC[C@]1(O)C(=O)OCc2c1cc1n(c2=O)Cc2c-1nc1cc(F)c(C)c3c1c2[C@H](NC(=O)[C@@H]1CCCN1)CC3", 0.48],
  ["CC[C@]1(O)C(=O)OCc2c1cc1n(c2=O)Cc2c-1nc1cc(F)c(C)c3c1c2[C@H](NC(=O)C1CNC1)CC3", 1.70]
]}
